Where these numbers come from: patent US9328099B2

# Measured Target: JAK1 (Homo sapiens (Human))
# Protocol Text: Jak Biochemical HTRF Assay, JAK1
# Measurement Context: HTRF biochemical assay, GST-tagged catalytic domain; top concentration tested […]; read-out: JAK1 IC50
pIC50: −log10 of the molar value.
Quantity: pIC50

N#CCC1(n2cc(C(N)=O)c(Nc3ccnc(F)c3)n2)CCC(Nc2ccccc2)CC1 (stereo not shown) | 10.22
CC(C)(C)OC(=O)N1CC(CC#N)(n2cc(C(N)=O)c(Nc3ccc(C(=O)N4CCS(=O)(=O)CC4)cc3)n2)C1 | 8.70
COCCCOC(=O)N1CC(CC#N)(n2cc(C(N)=O)c(Nc3ccccc3)n2)C1 | 7.43
C[C@H]1C[C@](CC#N)(n2cc(C(N)=O)c(Nc3ccccc3)n2)CCN1C(=O)OC(C)(C)C (racemic) | 8.70
N#CCC1(n2cc(C(N)=O)c(Nc3ccnc(F)c3)n2)CCN(Cc2cn3ccccc3n2)CC1 | 6.91

I: Cc1ccc(F)cc1N1CCC(CC#N)(n2cc(C(N)=O)c(Nc3ccc(F)cc3)n2)CC1
II: CC(C)(C)OC(=O)N1CCC(CC#N)(n2cc(C(N)=O)c(Nc3cccc(Br)c3)n2)CC1
[ask] Higher pIC50: I or II ? Please indicate the selected item by its label.
[reply] II
(II: 9.00, I: 6.69)

###

# Measured Target: JAK1 (Homo sapiens (Human))
# Protocol Text: Jak Biochemical HTRF Assay, JAK1
# Measurement Context: HTRF biochemical assay, GST-tagged catalytic domain; top concentration tested […]; read-out: JAK1 IC50
pIC50: −log10 of the molar value.
Quantity: pIC50

Examples from the recorded data:
COC(=O)c1ccc(Nc2nn(C3(CC#N)CCN(C(=O)OC(C)(C)C)CC3)cc2C(N)=O)cc1 | 9.52
COC(=O)c1ccccc1CN1CCC(CC#N)(n2cc(C(N)=O)c(Nc3ccccc3)n2)CC1 | 7.68
N#CCC1(n2cc(C(N)=O)c(Nc3ccnc(F)c3)n2)CCN(Cc2ccc(C#N)cc2)CC1 | 9.70
CC1(COC(=O)N2CCC(CC#N)(n3cc(C(N)=O)c(Nc4ccc(F)cc4)n3)CC2)COC1 | 8.10
CC(C)(C)OC(=O)N1CCC(CC#N)(n2cc(C(N)=O)c(Nc3ccc(F)nc3)n2)CC1 | 9.10

I: N#CCC1(n2cc(C(N)=O)c(Nc3ccc(F)cc3)n2)CCN(c2ccc(F)cc2)CC1
II: N#CCC1(n2cc(C(N)=O)c(Nc3ccccc3)n2)CCN(CC#Cc2ccccc2)CC1
III: N#CCC1(n2cc(C(N)=O)c(Nc3ccc(F)cc3)n2)CCN(Cc2ccnc3[nH]ccc23)CC1
[ask] Would you mind ranking these compounds by ascending pIC50? Use the labels to give the requested order.
[reply] II, III, I

###

# Measured Target: JAK1 (Homo sapiens (Human), UniProt P23458)
# Sequence (P23458 875-1153): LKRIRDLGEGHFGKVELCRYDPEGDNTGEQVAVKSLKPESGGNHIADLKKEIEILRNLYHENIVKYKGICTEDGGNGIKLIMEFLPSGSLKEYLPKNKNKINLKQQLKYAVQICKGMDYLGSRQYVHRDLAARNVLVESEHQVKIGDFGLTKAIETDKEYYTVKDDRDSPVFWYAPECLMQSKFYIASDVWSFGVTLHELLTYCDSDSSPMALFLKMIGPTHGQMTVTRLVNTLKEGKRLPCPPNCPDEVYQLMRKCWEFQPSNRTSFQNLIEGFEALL
# Protocol Text: Jak Biochemical HTRF Assay, JAK1
# Measurement Context: HTRF biochemical assay, GST-tagged catalytic domain; top concentration tested […]; read-out: JAK1 IC50
pIC50: −log10 of the molar value.
Quantity: pIC50

COC(=O)N1CCC(CC#N)(n2cc(C(N)=O)c(Nc3ccc(S(C)(=O)=O)cc3)n2)CC1 | 9.00
COCCOC(=O)N1CC(CC#N)(n2cc(C(N)=O)c(Nc3ccccc3)n2)C1 | 7.82
N#CCC1(n2cc(C(N)=O)c(Nc3ccc(F)cc3)n2)CCN(CCF)CC1 | 8.00
CC(C)(C)OC(=O)N1CCC(CC#N)(n2cc(C(N)=O)c(Nc3cccc(-c4ccccc4O)c3)n2)CC1 | 7.89

A: CC(C)(C)OC(=O)N1CCC(CC#N)(n2cc(C(N)=O)c(Nc3cccc(-c4ccccc4F)c3)n2)CC1
B: N#CCC1(n2cc(C(N)=O)c(Nc3ccccc3)n2)CN(C(=O)OCc2ccncc2)C1
C: COC1CC(CN2CCC(CC#N)(n3cc(C(N)=O)c(Nc4ccnc(F)c4)n3)CC2)C1 (centres unmarked)
D: N#CCC1(n2cc(C(N)=O)c(Nc3ccc(F)cc3)n2)CCN(c2ccccn2)CC1
[ask] Rank the 4 compounds: largest pIC50 first, smallest last. Use the labels to give the requested order.
[reply] D, B, A, C

###

# Measured Target: UniProt O60674
# Sequence (O60674 849-1124): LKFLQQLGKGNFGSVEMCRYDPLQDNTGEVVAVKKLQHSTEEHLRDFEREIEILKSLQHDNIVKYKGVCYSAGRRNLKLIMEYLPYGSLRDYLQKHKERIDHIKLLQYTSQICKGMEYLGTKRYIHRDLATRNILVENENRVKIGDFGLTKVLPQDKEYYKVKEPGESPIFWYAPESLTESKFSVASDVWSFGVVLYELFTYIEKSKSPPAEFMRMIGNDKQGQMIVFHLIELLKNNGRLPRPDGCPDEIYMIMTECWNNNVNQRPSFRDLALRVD
# Protocol Text: Jak Biochemical HTRF Assay, JAK2
# Measurement Context: HTRF biochemical assay, GST-tagged catalytic domain; top concentration tested […]
pIC50: −log10 of the molar value.
Quantity: pIC50

C[C@H]1CN(C(=O)OC(C)(C)C)CC[C@]1(CC#N)n1cc(C(N)=O)c(Nc2ccccc2)n1 (racemic) [Example 2-9] | 7.68
COc1cccc(CN2CCC(CC#N)(n3cc(C(N)=O)c(Nc4ccnc(F)c4)n3)CC2)c1 | 7.70
N#CCC1(n2cc(C(N)=O)c(Nc3ccc(-c4cn[nH]c4)nc3)n2)CCN(C(=O)OCC(F)(F)F)CC1 | 9.22
Cc1noc(C)c1-c1ccc(Nc2nn(C3(CC#N)CCN(C(=O)OC(C)(C)C)CC3)cc2C(N)=O)cc1 | 7.42

1: N#CCC1(n2cc(C(N)=O)c(Nc3ccc(F)cc3)n2)CCN(Cc2cccnc2)CC1
2: COC(=O)N1CCC(CC#N)(n2cc(C(N)=O)c(Nc3ccc(S(C)(=O)=O)cc3)n2)CC1
[ask] Higher pIC50: 1 or 2 ? Please indicate the selected item by its label.
[reply] 1
(1: 8.05, 2: 7.80)

###

# Measured Target: JAK1 (Homo sapiens (Human), UniProt P23458)
# Protocol Text: Jak Biochemical HTRF Assay, JAK1
# Measurement Context: HTRF biochemical assay, GST-tagged catalytic domain; top concentration tested […]; read-out: JAK1 IC50
Quantity: IC50 (nM)

Examples from the recorded data:
N#CCC1(n2cc(C(N)=O)c(Nc3ccnc(F)c3)n2)CCC(Nc2ccc(F)c(F)c2)CC1 (stereo not shown) [Example 40-20] | 1
N#CCC1(n2cc(C(N)=O)c(Nc3ccnc(F)c3)n2)CCN(CCc2ccccc2)CC1 | 4
CCC(=O)N1CC(CC#N)(n2cc(C(N)=O)c(Nc3ccccc3)n2)C1 | 42
N#CCC1(n2cc(C(N)=O)c(Nc3ccnc(F)c3)n2)CCC(Nc2ccc(F)cc2)CC1 (stereo not shown) [Example 40-47] | 215
N#CCC1(n2cc(C(N)=O)c(Nc3ccnc(C4CC4)c3)n2)CCN(C(=O)OCC(F)F)CC1 | 6
CC(C)(C)OC(=O)N1CCC(CC#N)(n2cc(C(N)=O)c(Nc3cccc(-c4ccc(F)cc4)c3)n2)CC1 | 51

1: N#CCC1(n2cc(C(N)=O)c(Nc3ccnc(F)c3)n2)CCC(Nc2ccccn2)CC1 (stereo not shown) [Example 40-22]
2: CC(C)(C)OC(=O)N1CCC(CC#N)(n2cc(C(N)=O)c(Nc3ccnc(C(F)(F)F)c3)n2)CC1
[ask] Please compare: 1 and 2 . Report which one has the smaller IC50 value. Please indicate the selected item by its label.
[reply] 2

I: N#CCC1(n2cc(C(N)=O)c(Nc3ccccc3)n2)CN(C(=O)OC2CCOC2)C1 (stereo not shown)
II: CC(O)(C(=O)N1CCC(CC#N)(n2cc(C(N)=O)c(Nc3ccnc(F)c3)n2)CC1)C(F)F (stereo not shown)
[ask] Please compare: I and II . Report which one has the smaller IC50 value. Please indicate the selected item by its label.
[reply] II
(II: 2 nM, I: 5 nM)

P: CCCCNC(=O)N1CC(CC#N)(n2cc(C(N)=O)c(Nc3ccccc3)n2)C1
Q: N#CCC1(n2cc(C(N)=O)c(Nc3ccc(F)cc3)n2)CCC(Nc2cccc(F)c2)CC1 (stereo not shown) [Example 40-16]
[ask] Higher IC50: P or Q ? Please indicate the selected item by its label.
[reply] P

a: N#CCC1(n2cc(C(N)=O)c(Nc3ccc(F)cc3)n2)CCN(Cc2cccc(F)n2)CC1
b: N#CCC1(n2cc(C(N)=O)c(Nc3ccnc(F)c3)n2)CCN(Cc2ccccc2C#N)CC1
[ask] Higher IC50: a or b ? Please indicate the selected item by its label.
[reply] a
(a: 3 nM, b: 0.3 nM)

###

# Measured Target: JAK1 (Homo sapiens (Human), UniProt P23458)
# Protocol Text: Jak Biochemical HTRF Assay, JAK1
# Measurement Context: HTRF biochemical assay, GST-tagged catalytic domain; top concentration tested […]; read-out: JAK1 IC50
Quantity: IC50 (nM)

Examples from the recorded data:
CC(C#N)C1(n2cc(C(N)=O)c(Nc3ccc(F)cc3)n2)CCN(C(=O)OC(C)(C)C)CC1 (stereo not shown) [Example 5-1] | 34
CC(C(=O)N1CCC(CC#N)(n2cc(C(N)=O)c(Nc3ccnc(F)c3)n2)CC1)C(F)(F)F (stereo not shown) [Example 34-48] | 0.3
N#CCC1(n2cc(C(N)=O)c(Nc3ccnc(F)c3)n2)CCC(Nc2ccc(F)c(F)c2)CC1 (stereo not shown) [Example 40-36] | 65

P: Cc1ccc(-c2cccc(Nc3nn(C4(CC#N)CCN(C(=O)OC(C)(C)C)CC4)cc3C(N)=O)c2)cc1 [Example 15-6]
Q: CC(C)(C)OC(=O)N1CCC(CC#N)(n2cc(C(N)=O)c(Nc3cccc(Cn4ccnc4)c3)n2)CC1 [Example 4-3]
R: Cc1cccc(N2CCC(CC#N)(n3cc(C(N)=O)c(Nc4ccc(F)cc4)n3)CC2)n1 [Example 3-20]
S: Cc1ccc(NC(=O)N2CC(CC#N)(n3cc(C(N)=O)c(Nc4ccc(S(C)(=O)=O)cc4)n3)C2)cc1 [Example 38-41]
[ask] Would you mind ranking these compounds by ascending IC50? Use the labels to give the requested order.
[reply] Q, R, S, P
